Target: CDK1:Cyclin-B (Homo sapiens)
Construct: purchased New England Biolabs 6020; host or cells: insect cells
Sequence (P06493 whole entry): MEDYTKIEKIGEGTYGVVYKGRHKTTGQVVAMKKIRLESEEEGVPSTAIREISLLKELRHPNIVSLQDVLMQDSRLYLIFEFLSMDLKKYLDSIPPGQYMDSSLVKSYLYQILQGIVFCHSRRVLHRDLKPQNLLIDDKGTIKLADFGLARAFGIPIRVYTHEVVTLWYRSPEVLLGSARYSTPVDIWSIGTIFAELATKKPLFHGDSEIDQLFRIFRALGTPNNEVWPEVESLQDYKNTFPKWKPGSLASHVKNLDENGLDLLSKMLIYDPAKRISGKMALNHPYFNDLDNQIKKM
Sequence (P14635 whole entry partner): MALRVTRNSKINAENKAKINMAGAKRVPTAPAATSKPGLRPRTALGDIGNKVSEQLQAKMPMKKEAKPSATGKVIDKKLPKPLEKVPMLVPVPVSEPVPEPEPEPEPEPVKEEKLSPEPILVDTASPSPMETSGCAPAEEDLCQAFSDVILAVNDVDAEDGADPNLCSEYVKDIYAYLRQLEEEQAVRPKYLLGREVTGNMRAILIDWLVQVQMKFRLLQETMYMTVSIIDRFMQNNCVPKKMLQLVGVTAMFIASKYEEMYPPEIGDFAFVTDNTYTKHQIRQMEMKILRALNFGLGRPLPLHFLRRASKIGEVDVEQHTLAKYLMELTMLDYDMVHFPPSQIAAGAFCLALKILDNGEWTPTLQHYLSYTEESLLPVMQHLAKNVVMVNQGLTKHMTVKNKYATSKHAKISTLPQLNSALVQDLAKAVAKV
Experiment: CDK1 Screening Assay
Type: biochemical
Details: Table 1; read-out: CDK1 IC50
Method: 70 μL of the kinase reaction mixture was dispensed into the well of a streptavidin coated FlashPlate™ (Cat. # SMP103, NEN, Boston, Mass.). […] The histone-H1 biotinylated peptide substrate became immobilized on the Flashplate™ and the incorporation of ^33P-γ-ATP was measured by reading the plate on a scintillation counter. Inhibition of the enzymatic activity of CDK1 was measured by observing a reduced amount of ^33P-γ-ATP incorporated into the immobilized peptide. […]
Threshold-based label: IC50 under 100 nM gives 1, IC50 not under 100 nM gives 0.

Please let me know if `Nc1nc(Nc2ccc(S(N)(=O)=O)cc2)n(C(=O)c2c(F)cccc2F)n1` shows IC50 below 100 nM.
0

Please let me know if `CCc1ccc(C(=O)n2nc(Nc3ccc(S(=O)(=O)NCCN(C)C)cc3)nc2N)s1` shows IC50 below 100 nM.
1

Please let me know if `Nc1nc(Nc2ccc(S(N)(=O)=O)cc2)nn1C(=O)c1sccc1-n1cccc1` shows IC50 below 100 nM.
0

Please let me know if `Nc1nc(Nc2ccc(-n3cncn3)cc2)nn1C(=O)c1c(F)cccc1F` shows IC50 below 100 nM.
0

Please let me know if `Nc1nc(Nc2ccc(S(N)(=O)=O)cc2)nn1S(=O)(=O)c1c(F)cccc1F` shows IC50 below 100 nM.
0

Please let me know if `Nc1nc(Nc2ccc(S(=O)(=O)N3CCCCC3)cc2)nn1C(=O)c1cccs1` shows IC50 below 100 nM.
1

Please let me know if CCCCC1CCC(C(=O)n2nc(Nc3ccc(S(N)(=O)=O)cc3)nc2N)CC1 (stereo not shown) shows IC50 below 100 nM.
0

Please let me know if `Nc1nc(Nc2ccc(S(N)(=O)=O)cc2)nn1C(=O)Nc1c(F)cccc1F` shows IC50 below 100 nM.
1

Please let me know if `CN(C)S(=O)(=O)c1ccc(Nc2nc(N)n(C(=O)c3c(F)cccc3F)n2)cc1` shows IC50 below 100 nM.
0

Please let me know if `Cc1ccsc1C(=O)n1nc(Nc2ccc(S(=O)(=O)N(C)C)cc2)nc1N` shows IC50 below 100 nM.
0

Please let me know if CC1CCCCC1C(=O)n1nc(Nc2ccc(S(N)(=O)=O)cc2)nc1N (stereo not shown) shows IC50 below 100 nM.
1

Please let me know if `Nc1nc(Nc2ccc(S(N)(=O)=O)cc2)nn1C(=O)c1c(Cl)cccc1Cl` shows IC50 below 100 nM.
1

Please let me know if `CCNS(=O)(=O)c1ccc(Nc2nc(N)n(C(=O)c3c(F)cccc3F)n2)cc1` shows IC50 below 100 nM.
1

Please let me know if `CC(=O)Nc1ccsc1C(=O)n1nc(Nc2ccc(S(N)(=O)=O)cc2)nc1N` shows IC50 below 100 nM.
1

Please let me know if `CCc1ccc(C(=O)n2nc(Nc3ccc(S(=O)(=O)N(C)C)cc3)nc2N)s1` shows IC50 below 100 nM.
0

Please let me know if `CC(=O)c1ccc(C(=O)n2nc(Nc3ccc(S(N)(=O)=O)cc3)nc2N)s1` shows IC50 below 100 nM.
1

Please let me know if `Cc1ccc(F)c(C(=O)n2nc(Nc3ccc(NS(C)(=O)=O)cc3)nc2N)c1F` shows IC50 below 100 nM.
1

Please let me know if `Nc1nc(Nc2ccc(S(N)(=O)=O)cc2)nn1C(=O)c1c(F)ccc(F)c1F` shows IC50 below 100 nM.
1

Please let me know if `Nc1nc(Nc2ccc(S(N)(=O)=O)cc2)nn1C(=O)c1c(Cl)cc(Cl)cc1Cl` shows IC50 below 100 nM.
0

Please let me know if `Cc1ccsc1C(=O)n1nc(Nc2ccc(N3CCCS3(=O)=O)cc2)nc1N` shows IC50 below 100 nM.
1

Please let me know if `Nc1nc(Nc2ccc(S(N)(=O)=O)cc2)nn1C(=O)c1ccc(Br)s1` shows IC50 below 100 nM.
1

Please let me know if `Nc1nc(Nc2ccc(S(N)(=O)=O)cc2)nn1C(=O)c1ccc(F)cc1F` shows IC50 below 100 nM.
0

Please let me know if `Nc1ccc(F)c(C(=O)n2nc(Nc3ccc(S(N)(=O)=O)cc3)nc2N)c1F` shows IC50 below 100 nM.
1

Please let me know if `Cc1cc(C)c(C(=O)n2nc(Nc3ccc(NS(C)(=O)=O)cc3)nc2N)s1` shows IC50 below 100 nM.
1

Please let me know if `Cc1ccc(F)c(C(=O)n2nc(Nc3ccc(-n4cncn4)cc3)nc2N)c1F` shows IC50 below 100 nM.
0

Please let me know if `Nc1nc(Nc2ccc(S(N)(=O)=O)cc2)nn1C(=O)c1csnn1` shows IC50 below 100 nM.
0

Value source: patent US6924302B2
